- TARGET DESC: erythrocytes infected with P. falciparum field isolate 10975
- MEASUREMENT NOTES: flow cytometry, staining of IEs
% parasite recognition reference
Enter your answer as a number in %; do not include the unit.

Q: GET /values?readout=% parasite recognition&item= MGC32 (antibody) VH: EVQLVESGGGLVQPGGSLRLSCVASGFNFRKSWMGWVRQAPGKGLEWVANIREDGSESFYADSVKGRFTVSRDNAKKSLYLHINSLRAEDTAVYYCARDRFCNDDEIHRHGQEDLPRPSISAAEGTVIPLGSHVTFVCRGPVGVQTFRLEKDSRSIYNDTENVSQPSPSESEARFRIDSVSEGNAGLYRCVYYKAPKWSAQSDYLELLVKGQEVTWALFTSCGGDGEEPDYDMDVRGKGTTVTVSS VL: DILMTQSPDSLAVSLGERATINCKSSQSVLYRSKNKNYLAWFQQKPGQPPKVLIYSTSTRASGVPDRFTGSGSGTDFTLTISSLQAEDVAVYYCLQYYITPYTFGQGTKLEIK
Result: 3.2

Q: GET /values?readout=% parasite recognition&item= MGC26 (antibody) VH: EVQLVDSGGGLVQPGGSLRLSCAASGFTFSTYWMTWVRQTPGKGLEWVASIKQDGTERYYVDSVKGRFIISRDNAKNSLYLQMHSLRAEDTAVYYCVRDRFCRDHMHIEEDLPRPSISPEPATVIPLGSHVTIVCRGPVGVETFRLQKESRSLYNDTEDVSQPSPSESEARFRIDSVSEGHGGLYRCLYYKSSKWSEQSDYLEMLVKGEDVTWALFPYCGGDGEESDYYMDVWGKGTTVTVSS VL: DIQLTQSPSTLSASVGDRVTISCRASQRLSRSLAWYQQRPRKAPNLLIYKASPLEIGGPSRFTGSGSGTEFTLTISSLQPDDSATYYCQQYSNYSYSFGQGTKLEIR
Result: 7.3

Value source: patent US20180186897A1
